# System: SW 1271 complex tumor spheroid viability
# Protocol details: Anticancer human tumor SW 1271 cell line growth inhibition; active = viability on the fitted dose curve at most 10% of control; inactive = the rest;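 also: spheroids exposed to agents for seven days before readout; percent of DMSO vehicle control luminescence so 100% = vehicle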
# Recorded conditions: second compound 10 µM; first compound 0.949 µM
Outcome codes: class 1 for active, class 0 for inactive

{"Compound": "O=C(c1cc(Cc2n[nH]c(=O)c3ccccc23)ccc1F)N1CCN(C(=O)C2CC2)CC1 + Cn1nnc2c(C(N)=O)ncn2c1=O", "Measured on": "SW 1271 complex tumor spheroid viability", "Class name": "class 0"}
{"Compound": "Cc1sc2c(c1C)C(c1ccc(Cl)cc1)=NC(CC(=O)Nc1ccc(O)cc1)c1nnc(C)n1-2 (centres undefined) + Cn1nnc2c(C(N)=O)ncn2c1=O", "Measured on": "SW 1271 complex tumor spheroid viability", "Class name": "class 1"}
{"Compound": "Cn1ncnc1[C@H]1c2n[nH]c(=O)c3cc(F)cc(c23)N[C@@H]1c1ccc(F)cc1 + Cn1nnc2c(C(N)=O)ncn2c1=O", "Measured on": "SW 1271 complex tumor spheroid viability", "Class name": "class 0"}
{"Compound": "CNCc1ccc(-c2cc(-c3nc(-c4ccc(S(=O)(=O)C(C)C)cc4)cnc3N)on2)cc1 + Cn1nnc2c(C(N)=O)ncn2c1=O", "Measured on": "SW 1271 complex tumor spheroid viability", "Class name": "class 1"}

Cited source: PubChem BioAssay AID1845215
